Values were extracted from the supplement of paper PMC11208160.

# Lookup of reported recombinant barcode read abundance (log10) keyed by entry
Procedure text: recombinant barcode read abundance after kanamycin selection (control-corrected) (log10(CPM+1)); higher = more efficient recombination; sequences stand for … in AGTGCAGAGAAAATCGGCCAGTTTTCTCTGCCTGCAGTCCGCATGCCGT…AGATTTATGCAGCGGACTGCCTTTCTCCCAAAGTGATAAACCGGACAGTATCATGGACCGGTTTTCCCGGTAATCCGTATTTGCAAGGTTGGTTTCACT; site = the 11-nt target;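 further: IS621 recombinase and bridge RNA in Escherichia coli cells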
Readout type: recombinant barcode read abundance (log10)

ACCAATACTTGGGTTCTAACCTGTTGCCT (site ACCAATTCTAG)	0.0138
TACATCCCTTGGGTTCTAACCTGTTGCCA (site TACATCCCTAG)	0.5
GACCGAGCTTGGGTTCTAACCTGTTGCCT (site GACCGTGCTAG)	0.345
GTTGGTCCTTGGGTTCTAACCTGTTGCCT (site GTTGGTCCTAG)	1.75
CTAGCCGCTTGGGTTCTAACCTGTTGCTT (site AGCCTATCTTG)	0.119
ACCAATGCTTGGGTTCTAACCTGTTGCCT (site ACCAATCCTAG)	0.136
TGTAATACTTGGGTTCTAACCTGTTGCCT (site TGTAATACTAG)	0.0354
TGGTAACCTTGGGTTCTAACCTGTTGCCT (site CGGTAACCTAG)	0.172
GACTTGCCTTGGGTTCTAACCTGTTGCAT (site GACTTGCCTAT)	0.313
AACTTCTCTTGGGTTCTAACCTGTTGCCT (site AACTTCACTAG)	0.184
ACGTATGCTTGGGTTCTAACCTGTTGCAT (site ACGTATGCTAT)	0.556
AGTCTAGCTTGGGTTCTAACCTGTTGCCG (site AGTCTAGCTCG)	0.67
TGAAGTACTTGGGTTCTAACCTGTTGCCT (site TGAATTACTAG)	0
CTTCACACTTGGGTTCTAACCTGTTGCAT (site CTTCACGCTAG)	0.316
CTACCTTCTTGGGTTCTAACCTGTTGCCT (site CTACCTTCTAG)	1.37
CTACGTACTTGGGTTCTAACCTGTTGCTG (site CTACGTACTCA)	1.75
CTAATGCCTTGGGTTCTAACCTGTTGCAT (site CTAATGCCTAT)	0.175
GGCTGCACTTGGGTTCTAACCTGTTGCCT (site GGCTGCACTAG)	1.17
AACACGACTTGGGTTCTAACCTGTTGCCT (site GACAGGACTAG)	0.165
CAATAGACTTGGGTTCTAACCTGTTGCCT (site TGCACCTCTTA)	0.0564
AGACTAACTTGGGTTCTAACCTGTTGCCT (site ATACTAACTAG)	0.29
TCCCCGGCTTGGGTTCTAACCTGTTGCCT (site TACCCGCCTAG)	0.0487
AAGAGAGCTTGGGTTCTAACCTGTTGCCT (site AAGAGAGCTAG)	1.91
AGTTCACCTTGGGTTCTAACCTGTTGCTA (site AGTTCACCTTA)	0.0738
ACGCATACTTGGGTTCTAACCTGTTGCCT (site ACGCATACTAG)	0.0647
TCAGGCCCTTGGGTTCTAACCTGTTGCCT (site TAAGGCCCTAA)	0.0837
CTCTAAACTTGGGTTCTAACCTGTTGCGA (site CTCTCAGCTTC)	0.0639
GCACATCCTTGGGTTCTAACCTGTTGCGT (site GCACATCCTAC)	2.53
CAGGGGCCTTGGGTTCTAACCTGTTGCCT (site CAGCGGCCTAG)	0.187
TCGTGAGCTTGGGTTCTAACCTGTTGCCT (site TAGTGAGCTAG)	0.0646
GTGTCAACTTGGGTTCTAACCTGTTGCCT (site GTGTCACCTAG)	0.0106
TCTTGCTCTTGGGTTCTAACCTGTTGCCT (site AGAACTCCTCA)	0.102
CCTTAGTCTTGGGTTCTAACCTGTTGCAG (site CCTTAGTCTCT)	1.15
GTGAGATCTTGGGTTCTAACCTGTTGCCT (site GTGAGATCTAG)	1.06
CGTCCACCTTGGGTTCTAACCTGTTGCCT (site CGTCCACCTAG)	0.0544
TAGCATACTTGGGTTCTAACCTGTTGCCG (site TAGCATACTCG)	0.861
GGCCTCCCTTGGGTTCTAACCTGTTGCAT (site GGCCTCCCTAT)	0.743
GGACGCACTTGGGTTCTAACCTGTTGCGG (site CCTAAGCCTAT)	0.604
ACGCGTTCTTGGGTTCTAACCTGTTGCAT (site CTAGACCCTCC)	0.271
TTAGGGGCTTGGGTTCTAACCTGTTGCCT (site TTAGGGACTAG)	0.911
ACTAGGACTTGGGTTCTAACCTGTTGCGT (site ACTAGGACTCC)	1.22
ACGCGAGCTTGGGTTCTAACCTGTTGCAG (site ACGCGAGCTCG)	0.192

====

Procedure text: recombinant barcode read abundance after kanamycin selection (control-corrected) (log10(CPM+1)); higher = more efficient recombination; sequences stand for … in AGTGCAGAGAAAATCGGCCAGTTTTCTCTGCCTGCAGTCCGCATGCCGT…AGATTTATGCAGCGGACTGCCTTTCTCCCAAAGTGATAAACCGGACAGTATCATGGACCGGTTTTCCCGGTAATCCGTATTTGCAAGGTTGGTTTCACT; site = the 11-nt target
# Lookup of reported recombinant barcode read abundance (log10) keyed by entry
Readout type: recombinant barcode read abundance (log10)

TATTAGCCTTGGGTTCTAACCTGTTGCCT (site TATTACCCTAG)	0.283
TCCACATCTTGGGTTCTAACCTGTTGCCT (site TCCACAGCTAG)	0.00992
TAAAAGGCTTGGGTTCTAACCTGTTGCCT (site TAAAAGACTAG)	0.102
CTCTCGTCTTGGGTTCTAACCTGTTGCTT (site CTCTCGTCTAT)	0.091
GGGGAAGCTTGGGTTCTAACCTGTTGCCT (site GGGGAAGCTAG)	1.73
TATTCTCCTTGGGTTCTAACCTGTTGCAT (site TATTCTCCTAG)	0.00827
GTCCCTACTTGGGTTCTAACCTGTTGCCG (site GTCCCTACTCG)	1.11
ACCAATGCTTGGGTTCTAACCTGTTGCCT (site ACCAATGCTAG)	0.0431
TTATTCACTTGGGTTCTAACCTGTTGCCT (site TCATTGACTAG)	0.0352
TCTTGTCCTTGGGTTCTAACCTGTTGCGA (site TCTTGTCCTGC)	0.343
TACTAAGCTTGGGTTCTAACCTGTTGCCT (site TACTAAGCTAG)	0.495
AACTTCCCTTGGGTTCTAACCTGTTGCCT (site AACTTCGCTAG)	0.00996
ACGTCTCCTTGGGTTCTAACCTGTTGCTG (site ACGCCTCCTCA)	0.175
CCACGGCCTTGGGTTCTAACCTGTTGCAT (site CCACGGCCTAT)	1.21
GACGTTGCTTGGGTTCTAACCTGTTGCCT (site GACTTTACTAG)	0.102
CTGGACCCTTGGGTTCTAACCTGTTGCCG (site GATTCGACTAC)	0.0386
AATACCTCTTGGGTTCTAACCTGTTGCCT (site ACTACCTCTAG)	0.0183
CTAAGTCCTTGGGTTCTAACCTGTTGCAT (site CTAAGTCCTAT)	1.34
TCTACGTCTTGGGTTCTAACCTGTTGCCT (site TCTACGTCTAG)	0.168
CCTCGGGCTTGGGTTCTAACCTGTTGCAG (site CATCGGGCTCT)	0.0896
TATAACACTTGGGTTCTAACCTGTTGCCG (site CTACTATCTGC)	0.0288

====

Procedure text: recombinant barcode read abundance after kanamycin selection (control-corrected) (log10(CPM+1)); higher = more efficient recombination; sequences stand for … in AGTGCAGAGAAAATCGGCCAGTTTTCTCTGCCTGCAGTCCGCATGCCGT…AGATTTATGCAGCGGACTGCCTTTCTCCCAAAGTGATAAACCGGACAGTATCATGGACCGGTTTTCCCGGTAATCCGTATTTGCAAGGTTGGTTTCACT; site = the 11-nt target
# recombinant barcode read abundance (log10) >= 0.4 gives label 1, anything below gives label 0

AGAGGGACTTGGGTTCTAACCTGTTGCCT (site AGAGAGACTAG)	label 1
AAGACAGCTTGGGTTCTAACCTGTTGCCT (site AAGACAGCTAG)	label 1
GTTACACCTTGGGTTCTAACCTGTTGCCT (site GTTACACCTAG)	label 1
TACGCCTCTTGGGTTCTAACCTGTTGCCT (site AACGCCTCTAG)	label 0
GTAAGTTCTTGGGTTCTAACCTGTTGCCT (site GTAAGTTCTAG)	label 1
CTACGGACTTGGGTTCTAACCTGTTGCTG (site CTACGAACTCA)	label 1
GAGCTAGCTTGGGTTCTAACCTGTTGCGT (site GAGCTAGCTGC)	label 0
GTCCCTACTTGGGTTCTAACCTGTTGCCG (site GTCTCTACTCG)	label 0
ATGGATACTTGGGTTCTAACCTGTTGCCT (site ATGGATACTAG)	label 1
GCCAACCCTTGGGTTCTAACCTGTTGCTA (site GCCAACCCTTA)	label 0
ATGGTACCTTGGGTTCTAACCTGTTGCTA (site ATGGTACCTTA)	label 1
CTAGATTCTTGGGTTCTAACCTGTTGCCT (site CAAGATTCTAG)	label 0
GTCTCTACTTGGGTTCTAACCTGTTGCGG (site GTCTCTACTCC)	label 0
GCTCATACTTGGGTTCTAACCTGTTGCCT (site CACGCGCCTCC)	label 0
AGTTAACCTTGGGTTCTAACCTGTTGCGG (site AGTTAACCTCC)	label 1
GAAAAGGCTTGGGTTCTAACCTGTTGCCT (site GAAACGGCTAG)	label 0
TTAACTACTTGGGTTCTAACCTGTTGCTA (site TTAACTACTTA)	label 0
ATACGTACTTGGGTTCTAACCTGTTGCCT (site GTACGTACTAG)	label 0
ACGACTCCTTGGGTTCTAACCTGTTGCCT (site ACGACTACTAG)	label 1
AGTGCGGCTTGGGTTCTAACCTGTTGCCT (site TGTGCGGCTAG)	label 0
